# TARGET: Human SARS-CoV-2_Wuhan S (SmT1) (SARS-CoV-2 (Wuhan), UniProt P0DTC2 14-1208)
# TEST_PROTOCOL: SPR, VHH over immobilised S
Field: kon. Provide a value for each of the binders that follow.
Give the value in M⁻¹ s⁻¹ but do not write M⁻¹ s⁻¹ after it.

# lookup: kon of NRCoV2-02 VHH (VHH) VHH: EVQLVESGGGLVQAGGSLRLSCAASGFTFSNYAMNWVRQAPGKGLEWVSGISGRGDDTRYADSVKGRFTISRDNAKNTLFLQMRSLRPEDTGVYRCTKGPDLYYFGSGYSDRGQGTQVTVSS
2.04e+06

# lookup: kon of NRCoV2-15 VHH (VHH) VHH: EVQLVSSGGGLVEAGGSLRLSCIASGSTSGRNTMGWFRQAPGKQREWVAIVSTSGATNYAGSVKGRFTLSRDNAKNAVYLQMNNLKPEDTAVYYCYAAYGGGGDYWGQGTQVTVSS
691000

# lookup: kon of NRCoV2-MRed06 VHH (VHH) VHH: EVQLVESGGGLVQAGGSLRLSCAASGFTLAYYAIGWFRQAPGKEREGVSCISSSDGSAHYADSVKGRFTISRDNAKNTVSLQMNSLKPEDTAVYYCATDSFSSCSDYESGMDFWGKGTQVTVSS
192000

# lookup: kon of NRCoV2-SR16 VHH (VHH) VHH: QVQLVQSAGGLVQAGGSLRLSCVVSGTTFSRYHMGWHRQAPGKQRDFVAGISTSGAVTYADSAKGRFTISRDNAKNTVYLEMNSLKLEDTALYYCNTGGWDYRSSTFIMGLNWGQGTQVTVSS
488000
